Biological target: Ornithine decarboxylase (Rattus norvegicus, UniProt P09057)
Sequence (P09057 whole entry): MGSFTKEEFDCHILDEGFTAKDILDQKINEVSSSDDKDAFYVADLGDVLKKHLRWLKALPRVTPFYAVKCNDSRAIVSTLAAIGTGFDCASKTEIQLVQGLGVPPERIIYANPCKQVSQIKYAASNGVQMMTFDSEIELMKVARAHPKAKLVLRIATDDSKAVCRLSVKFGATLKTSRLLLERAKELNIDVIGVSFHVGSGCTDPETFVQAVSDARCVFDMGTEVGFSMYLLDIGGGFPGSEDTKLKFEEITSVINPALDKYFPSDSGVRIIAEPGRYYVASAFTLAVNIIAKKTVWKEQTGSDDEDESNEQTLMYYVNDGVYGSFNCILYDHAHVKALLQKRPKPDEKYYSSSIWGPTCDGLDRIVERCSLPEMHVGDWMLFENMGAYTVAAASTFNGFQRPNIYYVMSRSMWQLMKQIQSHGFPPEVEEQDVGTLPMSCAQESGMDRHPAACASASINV
Listed compounds paired with reported Ki
measured.quantity: Ki (mM)

> print(dat)
                                   compound  measurement.units  rel  assay.value
1    CC(CN)(CCN)C(=O)O (stereo unspecified)                 mM    >           11
2  CC(C)(CN)C(CN)C(=O)O (stereo unspecified)                 mM    >           11
3         CC(CN)C(C)CN (stereo unspecified)                 mM    =          6.1
4  CC(C)(CN)C(C)(CN)C(=O)O (stereo unspecified)                 mM    >           11
5    CC(CN)C(CN)C(=O)O (stereo unspecified)                 mM    =         0.72
6  CC(CN)C(C)(CN)C(=O)O (stereo unspecified)                 mM    =         1.65

Source listed as ChEMBL document CHEMBL1128697.
